test system: Escherichia coli TOP10; assay: shrunken log2 fold change of peptide-encoding DNA abundance (4.5 h post-induction vs induction); higher = less antimicrobial activity (less host growth inhibition); conditions: time post-induction: 4.5 h; library: site-saturation at positions 5, 18, 19, 20
Experimental Readout: shrunken log2 fold change
One number for each entry.

Sample records with shrunken log2 fold change:
RRIRHRPPRLPRPRPRPGCQPRP: 0.0291
RRIRPRPPRLPRPRPRPTEDPRP: -0.18
RRIRKRPPRLPRPRPRPSVRPRP: 0.528

Now, please, on to the next sequence.
# get_value(readout='shrunken log2 fold change', item= RRIRLRPPRLPRPRPRPSMYPRP )
-0.261

###

tested on: Escherichia coli TOP10; experiment: shrunken log2 fold change of peptide-encoding DNA abundance (4.5 h post-induction vs induction); higher = less antimicrobial activity (less host growth inhibition); conditions: time post-induction: 4.5 h; library: site-saturation at positions 5, 18, 19, 20
Decide by shrunken log2 fold change: equal to or exceeding 0.02 means 1 (yes), less means 0 (no).

Previously resolved entries follow.
RRIRTRPPRLPRPRPRPFDDPRP: 1 (yes)
RRIRFRPPRLPRPRPRPITKPRP: 0 (no)
RRIRCRPPRLPRPRPRPGVKPRP: 0 (no)
RRIRIRPPRLPRPRPRPWAPPRP: 0 (no)
RRIRARPPRLPRPRPRPTSEPRP: 1 (yes)
RRIRLRPPRLPRPRPRPWLQPRP: 1 (yes)
RRIRNRPPRLPRPRPRPEQPPRP: 1 (yes)
RRIRARPPRLPRPRPRPPQEPRP: 1 (yes)
RRIRLRPPRLPRPRPRPCWRPRP: 1 (yes)
RRIRARPPRLPRPRPRPFIHPRP: 0 (no)

In plain terms: is recorded shrunken log2 fold change at least 0.02 for RRIRWRPPRLPRPRPRPMTMPRP ?
0 (no)

Reported shrunken log2 fold change at or above 0.02? RRIRMRPPRLPRPRPRPVNGPRP
0 (no)

Form field: shrunken log2 fold change at least 0.02? Entry: RRIRIRPPRLPRPRPRPPEFPRP
0 (no)

###

system: Escherichia coli TOP10; experiment: shrunken log2 fold change of peptide-encoding DNA abundance (4.5 h post-induction vs induction); higher = less antimicrobial activity (less host growth inhibition); settings: time post-induction: 4.5 h; library: site-saturation at positions 5, 18, 19, 20
Experimental Readout: shrunken log2 fold change
Numbers only.

Take a look at these entries with their results.
RRIRYRPPRLPRPRPRPPVYPRP: -0.406
RRIRNRPPRLPRPRPRPVVNPRP: -0.244
RRIRWRPPRLPRPRPRPWQGPRP: -0.11
RRIRRRPPRLPRPRPRPYMYPRP: -0.74
RRIRCRPPRLPRPRPRPHQMPRP: -0.691

Now consider a different sequence.
Entry under review: RRIRSRPPRLPRPRPRPYKNPRP . Reported shrunken log2 fold change?
-0.399

###

tested on: Escherichia coli TOP10; experiment: shrunken log2 fold change of peptide-encoding DNA abundance (4.5 h post-induction vs induction); higher = less antimicrobial activity (less host growth inhibition); settings: time post-induction: 4.5 h; library: site-saturation at positions 5, 18, 19, 20
Experimental Readout: shrunken log2 fold change
Numbers only.

Past entries and their recorded results:
RRIRRRPPRLPRPRPRPFCKPRP: -0.188
RRIRPRPPRLPRPRPRPFQEPRP: -0.185
RRIRWRPPRLPRPRPRPSQWPRP: -0.0949

Go through the list and state shrunken log2 fold change for each entry.
1. RRIRSRPPRLPRPRPRPVEVPRP
2. RRIRYRPPRLPRPRPRPHAEPRP

1. 0.233
2. -0.144

###

tested on: Escherichia coli TOP10; assay: shrunken log2 fold change of peptide-encoding DNA abundance (4.5 h post-induction vs induction); higher = less antimicrobial activity (less host growth inhibition); conditions: time post-induction: 4.5 h; library: site-saturation at positions 5, 18, 19, 20
Quick rule for you: shrunken log2 fold change at -0.07 or higher means yes, lower means no.

Examples from the recorded data:
RRIRRRPPRLPRPRPRPPSDPRP: yes
RRIRMRPPRLPRPRPRPGIRPRP: yes
RRIRSRPPRLPRPRPRPELCPRP: no
RRIRHRPPRLPRPRPRPRTFPRP: yes
RRIRHRPPRLPRPRPRPLSKPRP: no
RRIRSRPPRLPRPRPRPIRAPRP: yes

Kindly determine if shrunken log2 fold change recorded for RRIRHRPPRLPRPRPRPHGWPRP is above or exactly -0.07.
yes

Dear colleague, could you confirm whether RRIRDRPPRLPRPRPRPSMMPRP has shrunken log2 fold change at or above -0.07?
yes

Is the recorded value of shrunken log2 fold change equal to or greater than -0.07 for this sequence? RRIRWRPPRLPRPRPRPQAEPRP
yes

Does the reported shrunken log2 fold change for RRIRFRPPRLPRPRPRPDCDPRP fall at or above the -0.07 mark?
no

Please tell me: is the sequence RRIRSRPPRLPRPRPRPITCPRP at or over -0.07 in terms of shrunken log2 fold change?
no

Textbook exercise: given the entry RRIRIRPPRLPRPRPRPYLWPRP , state whether its shrunken log2 fold change is greater than or equal to -0.07.
no

Quick check: does RRIRFRPPRLPRPRPRPRAPPRP have shrunken log2 fold change greater than or equal to -0.07?
yes

Quick check: does RRIRGRPPRLPRPRPRPGPPPRP have shrunken log2 fold change greater than or equal to -0.07?
yes

Test whether the sequence RRIRVRPPRLPRPRPRPMCGPRP records shrunken log2 fold change of -0.07 or higher.
yes

###

tested on: Escherichia coli TOP10; experiment: shrunken log2 fold change of peptide-encoding DNA abundance (4.5 h post-induction vs induction); higher = less antimicrobial activity (less host growth inhibition); conditions: time post-induction: 4.5 h; library: site-saturation at positions 5, 18, 19, 20
Note to self: class labels come from recorded shrunken log2 fold change, ranges listed here: low = under -0.2, mid = from -0.2 up to 0.04, high = 0.04 and over

RRIRFRPPRLPRPRPRPLYAPRP: mid

Dear colleague, I would appreciate it if you could identify the bin for RRIRPRPPRLPRPRPRPDKVPRP and reply at your convenience.
low

Using the reported shrunken log2 fold change, which band applies to RRIRERPPRLPRPRPRPTIFPRP ?
mid

# bin label for RRIRFRPPRLPRPRPRPALEPRP
mid

Band for the recorded shrunken log2 fold change of RRIRLRPPRLPRPRPRPSEYPRP ?
low

Which of the defined bands does the recorded shrunken log2 fold change of RRIRIRPPRLPRPRPRPRFLPRP sit within?
low

Categorize the following entry: RRIRMRPPRLPRPRPRPTRGPRP
high

// bin(item) where item = RRIRWRPPRLPRPRPRPRKFPRP
high

Assign a category based on measured shrunken log2 fold change for RRIRDRPPRLPRPRPRPHALPRP and give only the class name.
low

###

system: Escherichia coli TOP10; experiment: shrunken log2 fold change of peptide-encoding DNA abundance (4.5 h post-induction vs induction); higher = less antimicrobial activity (less host growth inhibition); conditions: time post-induction: 4.5 h; library: site-saturation at positions 5, 18, 19, 20
Experimental Readout: shrunken log2 fold change
Answers are plain numbers.

RRIRLRPPRLPRPRPRPVMGPRP: 0.256
RRIRVRPPRLPRPRPRPGVAPRP: 0.377
RRIRDRPPRLPRPRPRPQLPPRP: 0.186
RRIRNRPPRLPRPRPRPKHYPRP: -0.399
RRIRMRPPRLPRPRPRPPKIPRP: 0.45

// each listed sequence needs a value for shrunken log2 fold change
1. RRIRMRPPRLPRPRPRPAFHPRP
2. RRIRIRPPRLPRPRPRPSRVPRP
3. RRIRTRPPRLPRPRPRPMFMPRP
4. RRIRYRPPRLPRPRPRPENTPRP
5. RRIRQRPPRLPRPRPRPGMQPRP

0.319
-0.0608
0.000513
-0.879
0.00486

###

tested on: Escherichia coli TOP10; assay: shrunken log2 fold change of peptide-encoding DNA abundance (4.5 h post-induction vs induction); higher = less antimicrobial activity (less host growth inhibition); settings: time post-induction: 4.5 h; library: site-saturation at positions 5, 18, 19, 20;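 further: peptides expressed intracellularly from a pBAD plasmid library in pooled LB shake-flask culture, induced with 0.3% L-arabinose, DNA abundance read by NGS, three biological replicates, DESeq2 with apeglm shrinkage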
Assign shrunken log2 fold change to each entry below.
Give bare numbers.

Study these solved cases before continuing.
RRIRWRPPRLPRPRPRPRQIPRP: 0.459
RRIRERPPRLPRPRPRPVKFPRP: -0.02
RRIRSRPPRLPRPRPRPIGDPRP: 0.0153
RRIRPRPPRLPRPRPRPSHGPRP: 0.108
RRIRIRPPRLPRPRPRPVKLPRP: -0.0316
RRIRARPPRLPRPRPRPKIPPRP: 0.174
RRIRNRPPRLPRPRPRPIVYPRP: -0.528
RRIRHRPPRLPRPRPRPKTYPRP: -1.51

For every item in the list below, what is its measured shrunken log2 fold change?
1. RRIRQRPPRLPRPRPRPVNEPRP
2. RRIRQRPPRLPRPRPRPWVQPRP
3. RRIRNRPPRLPRPRPRPCGDPRP
4. RRIRVRPPRLPRPRPRPSHLPRP
5. RRIRFRPPRLPRPRPRPHECPRP
6. RRIRGRPPRLPRPRPRPYKSPRP
7. RRIRIRPPRLPRPRPRPADCPRP

1: -0.325; 2: -0.0131; 3: 0.0293; 4: -0.443; 5: 0.0366; 6: -0.135; 7: 0.035

List the reported shrunken log2 fold change of each sequence below.
1. RRIRQRPPRLPRPRPRPQECPRP
2. RRIRYRPPRLPRPRPRPQNPPRP
3. RRIRRRPPRLPRPRPRPDIFPRP
4. RRIRNRPPRLPRPRPRPPIWPRP

[-0.00962, -0.483, 0.0756, -0.129]

Each of the following entries comes with a recorded value; kindly state shrunken log2 fold change for each.
1. RRIRKRPPRLPRPRPRPMPRPRP
2. RRIRLRPPRLPRPRPRPSSWPRP
3. RRIRMRPPRLPRPRPRPATFPRP
4. RRIRLRPPRLPRPRPRPEVCPRP
5. RRIRTRPPRLPRPRPRPWWTPRP

1. 0.276
2. -0.0958
3. 0.376
4. -0.0515
5. -0.045

Give shrunken log2 fold change for each of the items listed below.
1. RRIRCRPPRLPRPRPRPAPTPRP
2. RRIRARPPRLPRPRPRPVCWPRP
3. RRIRDRPPRLPRPRPRPCTCPRP
4. RRIRMRPPRLPRPRPRPADKPRP
5. RRIRMRPPRLPRPRPRPKQCPRP
6. RRIRWRPPRLPRPRPRPMYYPRP

[0.591, 0.894, -0.198, 0.318, 0.208, -0.32]

Kindly give each listed record's shrunken log2 fold change.
1. RRIRYRPPRLPRPRPRPHGKPRP
2. RRIRNRPPRLPRPRPRPKTHPRP
3. RRIRPRPPRLPRPRPRPQMKPRP
4. RRIRTRPPRLPRPRPRPQRMPRP

[0.0161, -0.298, -0.151, -0.272]

Give me shrunken log2 fold change for each of these sequences, listed below.
1. RRIRERPPRLPRPRPRPFNGPRP
2. RRIRDRPPRLPRPRPRPEDMPRP

1. -0.145
2. 1.81

Please give shrunken log2 fold change for each item listed below.
1. RRIRGRPPRLPRPRPRPMYYPRP
2. RRIRCRPPRLPRPRPRPVPPPRP
3. RRIRGRPPRLPRPRPRPYPIPRP

0.197
0.474
3.7

Parameters: items (list). Returns: shrunken log2 fold change for each item.
1. RRIRPRPPRLPRPRPRPTYSPRP
2. RRIRARPPRLPRPRPRPNVRPRP
3. RRIRLRPPRLPRPRPRPWHHPRP
4. RRIRGRPPRLPRPRPRPHQNPRP
5. RRIRHRPPRLPRPRPRPVWAPRP
6. RRIRSRPPRLPRPRPRPIHPPRP
7. RRIRGRPPRLPRPRPRPNFYPRP
8. RRIRQRPPRLPRPRPRPSARPRP

1: -0.104; 2: 0.0345; 3: -0.0279; 4: 0.58; 5: 0.193; 6: -0.0819; 7: 0.22; 8: -0.00609
